# method: Cytotoxicity against human F180 cells assessed as cell viability after 48 hrs by SRB assay
# Format: cell-based
# condition.context: F180, 48 h
Hi there, I'd appreciate the recorded IC50 for every entry that follows.
// units = nM; emit number, no label

So what's the measured IC50 for this one? `COc1cccc2c1C(=O)c1c(O)c3c(c(O)c1C2=O)C[C@@](O)(C(=O)CO)C[C@@H]3O[C@H]1C[C@H](N)[C@H](O)[C@H](C)O1`
350

Continue with `COC(=O)c1cc(NC2=NC(=O)/C(=C/c3ccc(Br)cc3)S2)ccc1O`
10000

Continue with `COC(=O)c1cc(NC2=NC(=O)/C(=C/c3ccc(C)cc3)S2)ccc1O`
1050

Continue with `COC(=O)c1cc(NC2=NC(=O)/C(=C/c3ccc(N(C)C)cc3)S2)ccc1O`
940
